settings: 1-octanol/water (1/1 by mass)
Counter-ions that a name gives are not always drawn.
EXPERIMENTAL READOUT: logP
I'd appreciate a reply containing only the number, no unit.

Query :: Note down logP recorded for CCOC(=O)CC(O)(CC(=O)OCC)C(=O)OCC [Add10, triethyl citrate, reference compound]
Result :: 0.9

Query :: Note down logP recorded for CC(C)COC(=O)CCCCC(=O)OCC(C)C [Add11, diisobutyl adipate, reference compound]
Result :: 4

Query :: Note down logP recorded for `CCCCCCCCCCCCc1ccc(O)cc1`
Result :: 5

----------
assay: Octanol/water partition coefficient (O/W coefficient) of the second component; details: 1-octanol/water 1/1 by mass; value of the second component species
EXPERIMENTAL READOUT: Second component Octanol/water partition coefficient

Query :: Note down Second component Octanol/water partition coefficient recorded for CCCCCCCC/C=C\CCCCCCCC(=O)N(CCO)CCO [Add1, oleic acid diethanolamide]
Result :: 6

Query :: Note down Second component Octanol/water partition coefficient recorded for CCCCCCC(CCCC)(CCCC)Cc1ccc(O)cc1 [Add33, 4-2,2-dibutyl-octylphenol]
Result :: 21

Query :: Note down Second component Octanol/water partition coefficient recorded for CCCCCCCCCCCC(=O)NCC(C)O (stereo not shown) [Add22, lauric acid monoisopropanolamide]
Result :: 4

Query :: Note down Second component Octanol/water partition coefficient recorded for CCCCCCCCCCCCCCCCCC(=O)N(CCO)CCO [Add21, stearic acid diethanolamide]
Result :: 11
